- tested-system: Cannabinoid receptor 1 (Homo sapiens, UniProt P21554)
- Sequence (P21554 whole entry): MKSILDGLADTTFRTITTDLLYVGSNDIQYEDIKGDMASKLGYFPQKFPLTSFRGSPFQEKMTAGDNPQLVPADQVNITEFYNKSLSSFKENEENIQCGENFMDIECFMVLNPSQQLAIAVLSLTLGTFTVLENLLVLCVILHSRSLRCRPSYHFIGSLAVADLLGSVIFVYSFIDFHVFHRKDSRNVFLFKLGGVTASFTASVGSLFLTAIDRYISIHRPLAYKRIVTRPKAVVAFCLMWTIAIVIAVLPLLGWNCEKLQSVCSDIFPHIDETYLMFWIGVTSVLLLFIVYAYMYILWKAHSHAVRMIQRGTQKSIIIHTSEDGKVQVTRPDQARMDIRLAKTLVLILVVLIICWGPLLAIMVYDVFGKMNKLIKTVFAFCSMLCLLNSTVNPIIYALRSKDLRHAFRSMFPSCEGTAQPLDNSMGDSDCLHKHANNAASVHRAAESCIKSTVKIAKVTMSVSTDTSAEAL
- assay-summary: Agonist activity at human CB1 receptor expressed in mouse AtT20 cells assessed as maximal agonist effect by measuring fluorescence at 10 uM incubated for 60 mins by FLIPR membrane potential assay relative to CP55940
- Assay type: functional, cell-based
- measurement-context: filed as agonist
Form field: Emax (one value per entry).
Numbers only here, please. The scale is %.

Solved entries:
CCCCn1cc(C(=O)N[C@H](C(N)=O)C(C)(C)C)c2ccccc21; 115
CCCCn1cc(C(=O)N[C@H](C(N)=O)C(C)(C)C)c2cccnc21; 117
CCCCn1cc(C(=O)N[C@@H](Cc2ccccc2)C(N)=O)c2ccccc21; 93

Ask: # query: Emax | item CCCCCn1cc(C(=O)c2cccc3ccccc23)c2ccccc21 | system: Cannabinoid receptor 1 (Homo sapiens, UniProt P21554)
Result: 116

Ask: # query: Emax | item CCCCn1nc(C(=O)N[C@@H](Cc2ccccc2)C(N)=O)c2ccccc21 | system: Cannabinoid receptor 1 (Homo sapiens, UniProt P21554)
Result: 95

Ask: # query: Emax | item CCCCCn1cc(C(=O)N[C@H](C(N)=O)C(C)C)c2cccnc21 | system: Cannabinoid receptor 1 (Homo sapiens, UniProt P21554)
Result: 112

Ask: # query: Emax | item CCCCn1nc(C(=O)N[C@H](C(N)=O)C(C)C)c2ccccc21 | system: Cannabinoid receptor 1 (Homo sapiens, UniProt P21554)
Result: 114

Ask: # query: Emax | item CCCCn1cc(C(=O)N[C@H](C(N)=O)C(C)C)c2cccnc21 | system: Cannabinoid receptor 1 (Homo sapiens, UniProt P21554)
Result: 104

Ask: # query: Emax | item CCCCn1nc(C(=O)N[C@H](C(N)=O)C(C)(C)C)c2ccccc21 | system: Cannabinoid receptor 1 (Homo sapiens, UniProt P21554)
Result: 113

Ask: # query: Emax | item CCCCn1cc(C(=O)N[C@H](C(N)=O)C(C)C)c2ccccc21 | system: Cannabinoid receptor 1 (Homo sapiens, UniProt P21554)
Result: 107

###

Ki data for Cannabinoid receptor 1 (Homo sapiens, UniProt P21554) follow.
Numbers only here, please. The scale is nM.

CCCCn1cc(C(=O)N[C@H](C(N)=O)C(C)(C)C)c2cccnc21; 15.5

Ask: # query: Ki | item CCCCn1nc(C(=O)N[C@H](C(N)=O)C(C)C)c2ccccc21 | system: Cannabinoid receptor 1 (Homo sapiens, UniProt P21554)
Result: 1.18

Ask: # query: Ki | item CCCCCn1cc(C(=O)N[C@@H](Cc2ccccc2)C(N)=O)c2cccnc21 | system: Cannabinoid receptor 1 (Homo sapiens, UniProt P21554)
Result: 437

Ask: # query: Ki | item CCCCn1cc(C(=O)N[C@H](C(N)=O)C(C)C)c2ccccc21 | system: Cannabinoid receptor 1 (Homo sapiens, UniProt P21554)
Result: 12.2

Ask: # query: Ki | item CCCCn1cc(C(=O)N[C@H](C(N)=O)C(C)C)c2cccnc21 | system: Cannabinoid receptor 1 (Homo sapiens, UniProt P21554)
Result: 501

Ask: # query: Ki | item CCCCCn1cc(C(=O)c2cccc3ccccc23)c2ccccc21 | system: Cannabinoid receptor 1 (Homo sapiens, UniProt P21554)
Result: 2.56

Ask: # query: Ki | item CCCCCn1cc(C(=O)N[C@H](C(N)=O)C(C)(C)C)c2cccnc21 | system: Cannabinoid receptor 1 (Homo sapiens, UniProt P21554)
Result: 3.94

Ask: # query: Ki | item CCCCn1cc(C(=O)N[C@@H](Cc2ccccc2)C(N)=O)c2cccnc21 | system: Cannabinoid receptor 1 (Homo sapiens, UniProt P21554)
Result: 538
